# procedureDetails: Cytotoxicity against human K562/A02 cells overexpressing ABCB1 assessed as decrease in cell survival rate incubated for 72 hrs by MTS assay
# Type: toxicity, cell-based
List of IC50 at 72 h values.

{"mol": "COc1cc2c(cc1OC)CN(Cc1c(-c3ccc(NC(=O)CN(C)C)cc3)nc3ccccn13)CC2", "IC50 at 72 h": "> 100 µM"}
{"mol": "Cc1cccc(/C=C/C(=O)Nc2ccc(-c3nc4ccccn4c3CN3CCN(c4ccccc4)CC3)cc2)c1", "IC50 at 72 h": "> 100 µM"}
{"mol": "COc1cc2c(cc1OC)CN(CC(=O)Nc1ccc(-c3nc4ccccn4c3CN3CCN(c4ccccc4)CC3)cc1)CC2", "IC50 at 72 h": "> 100 µM"}
{"mol": "CN(C)CC(=O)Nc1ccc(-c2nc3ccccn3c2CN2CCN(c3ccccc3)CC2)cc1", "IC50 at 72 h": "51.2 µM"}
{"mol": "O=C1CCCN1c1ccc(-c2nc3ccccn3c2CN2CCN(c3ccccc3)CC2)cc1", "IC50 at 72 h": "> 100 µM"}

Value lookup for IC50 at 72 h; key = O=C(/C=C/c1ccccc1)Nc1ccc(-c2nc3ccccn3c2CN2CCN(c3ccccc3)CC2)cc1
> 100 µM

Value lookup for IC50 at 72 h; key = COc1cc2c(cc1OC)CN(Cc1c(-c3ccc(NC(=O)COc4cccc([N+](=O)[O-])c4)cc3)nc3ccccn13)CC2
> 100 µM

Value lookup for IC50 at 72 h; key = COc1ccc(OCC(=O)Nc2ccc(-c3nc4ccccn4c3CN3CCc4cc(OC)c(OC)cc4C3)cc2)cc1
> 100 µM

Value lookup for IC50 at 72 h; key = COc1ccc(/C=C/C(=O)Nc2ccc(-c3nc4ccccn4c3CN3CCN(c4ccccc4)CC3)cc2)cc1
> 100 µM

Value lookup for IC50 at 72 h; key = O=C1CCN1c1ccc(-c2nc3ccccn3c2CN2CCN(c3ccccc3)CC2)cc1
45.5 µM

Value lookup for IC50 at 72 h; key = O=C(/C=C/c1ccc(Cl)cc1)Nc1ccc(-c2nc3ccccn3c2CN2CCN(c3ccccc3)CC2)cc1
> 100 µM

Value lookup for IC50 at 72 h; key = CCN(CC)CC(=O)Nc1ccc(-c2nc3ccccn3c2CN2CCN(c3ccccc3)CC2)cc1
40 µM

Value lookup for IC50 at 72 h; key = O=C(Cn1cnnc1)Nc1ccc(-c2nc3ccccn3c2CN2CCN(c3ccccc3)CC2)cc1
> 100 µM

Value lookup for IC50 at 72 h; key = O=C(CCN1CCN(c2ccccc2)CC1)Nc1ccc(-c2nc3ccccn3c2CN2CCN(c3ccccc3)CC2)cc1
22.9 µM

Value lookup for IC50 at 72 h; key = COc1cc2c(cc1OC)CN(Cc1c(-c3ccc(NC(=O)CN4CCN(c5ccccc5)CC4)cc3)nc3ccccn13)CC2
> 100 µM
